Provide the reported Relative Recognition of each item.
tested on: T cell clone LAU 50/4D7; assay: 51Cr release assay, T2 cells pulsed with serial dilutions of peptide, recognition by CTL clone LAU 50/4D7; assay type: cell-based, human; settings: relative to SEQ ID NO: 1 (=1); peptide dose for half maximal lysis, T2 cells, clone LAU 50/4D7
No end group written: not given here.
Could you keep your reply to the number by itself?

Dear colleague, please send me the reported Relative Recognition for AAAPKIFYA [SEQ ID NO: 1] when you can.
1

Dear colleague, please send me the reported Relative Recognition for AAGPKIFYA [SEQ ID NO: 2] when you can.
0.01

Dear colleague, please send me the reported Relative Recognition for AAAPKAFYA [SEQ ID NO: 5] when you can.
0.05

Dear colleague, please send me the reported Relative Recognition for AAAAKIFYA [SEQ ID NO: 3] when you can.
0.1

----------
Provide the reported Relative Binding of each item.
biological target: HLA-A2 (Homo sapiens, UniProt P04439, D140Y/D185E/D98H/E176V/E277Q/G131W/G231S/I119V/I121R/I166T/I218V/L300P/L318F/N151K/N90K/P208A/P217A/Q86G/Q94H/R138H/R169H/T345S); construct: using T2 cells, because these express HLA-A2; endogenous in cells; host or cells: T2 cells; assay: functional competition assay for peptide binding to HLA-A2 (inhibition of tyrosinase 368-376 recognition by CTL clone LAU 156/34 on T2 cells); assay type: cell-based; conditions: relative to SEQ ID NO: 1 (=1); concentration for 50% inhibition of target cell lysis
No end group written: not given here.
Could you keep your reply to the number by itself?

Dear colleague, please send me the reported Relative Binding for AAAPAIFYA [SEQ ID NO: 4] when you can.
0.9

Dear colleague, please send me the reported Relative Binding for AAGPKIFYA [SEQ ID NO: 2] when you can.
0.07

Dear colleague, please send me the reported Relative Binding for AAAPKAFYA [SEQ ID NO: 5] when you can.
0.1

Dear colleague, please send me the reported Relative Binding for AAAAKIFYA [SEQ ID NO: 3] when you can.
0.16

Dear colleague, please send me the reported Relative Binding for AAAPKIFYA [SEQ ID NO: 1] when you can.
1

----------
Provide the reported Relative Binding of each item.
Target: HLA-A2 (Homo sapiens, UniProt P04439, D140Y/D185E/D98H/E176V/E277Q/G131W/G231S/I119V/I121R/I166T/I218V/L300P/L318F/N151K/N90K/P208A/P217A/Q86G/Q94H/R138H/R169H/T345S)
Construct: using T2 cells, because these express HLA-A2; endogenous in cells; host or cells: T2 cells
Assay: functional competition assay for peptide binding to HLA-A2 (inhibition of tyrosinase 368-376 recognition by CTL clone LAU 156/34 on T2 cells)
Assay type: cell-based
Details: relative to SEQ ID NO: 17 (=1)
Description: T cell recognition by clone LAU 50/4D7 and binding to HLA-A2 by these peptides were determined experimentally. Peptide binding to HLA-A2 was determined in a functional competition assay.
No end group written: not given here.
Could you keep your reply to the number by itself?

Dear colleague, please send me the reported Relative Binding for AAAPKIFYA [SEQ ID NO: 1] when you can.
10

Dear colleague, please send me the reported Relative Binding for AAGPKIFYA [SEQ ID NO: 2] when you can.
0.7

Dear colleague, please send me the reported Relative Binding for AAAPKAFYA [SEQ ID NO: 5] when you can.
1

Dear colleague, please send me the reported Relative Binding for AAAAKIFYA [SEQ ID NO: 3] when you can.
1.5

Dear colleague, please send me the reported Relative Binding for AAAPAIFYA [SEQ ID NO: 4] when you can.
9

Origin of the recorded values: patent US20070105779A1
